This section presents molecules with their documented IC50 values.
Molecular target: GluA1o-γ8 (GRIA1o-CACNG8 fusion construct) (Homo sapiens (Human), UniProt P42261+Q8WXS5)
Sequence (P42261 other isoform, or with tags, fused parts or gaps): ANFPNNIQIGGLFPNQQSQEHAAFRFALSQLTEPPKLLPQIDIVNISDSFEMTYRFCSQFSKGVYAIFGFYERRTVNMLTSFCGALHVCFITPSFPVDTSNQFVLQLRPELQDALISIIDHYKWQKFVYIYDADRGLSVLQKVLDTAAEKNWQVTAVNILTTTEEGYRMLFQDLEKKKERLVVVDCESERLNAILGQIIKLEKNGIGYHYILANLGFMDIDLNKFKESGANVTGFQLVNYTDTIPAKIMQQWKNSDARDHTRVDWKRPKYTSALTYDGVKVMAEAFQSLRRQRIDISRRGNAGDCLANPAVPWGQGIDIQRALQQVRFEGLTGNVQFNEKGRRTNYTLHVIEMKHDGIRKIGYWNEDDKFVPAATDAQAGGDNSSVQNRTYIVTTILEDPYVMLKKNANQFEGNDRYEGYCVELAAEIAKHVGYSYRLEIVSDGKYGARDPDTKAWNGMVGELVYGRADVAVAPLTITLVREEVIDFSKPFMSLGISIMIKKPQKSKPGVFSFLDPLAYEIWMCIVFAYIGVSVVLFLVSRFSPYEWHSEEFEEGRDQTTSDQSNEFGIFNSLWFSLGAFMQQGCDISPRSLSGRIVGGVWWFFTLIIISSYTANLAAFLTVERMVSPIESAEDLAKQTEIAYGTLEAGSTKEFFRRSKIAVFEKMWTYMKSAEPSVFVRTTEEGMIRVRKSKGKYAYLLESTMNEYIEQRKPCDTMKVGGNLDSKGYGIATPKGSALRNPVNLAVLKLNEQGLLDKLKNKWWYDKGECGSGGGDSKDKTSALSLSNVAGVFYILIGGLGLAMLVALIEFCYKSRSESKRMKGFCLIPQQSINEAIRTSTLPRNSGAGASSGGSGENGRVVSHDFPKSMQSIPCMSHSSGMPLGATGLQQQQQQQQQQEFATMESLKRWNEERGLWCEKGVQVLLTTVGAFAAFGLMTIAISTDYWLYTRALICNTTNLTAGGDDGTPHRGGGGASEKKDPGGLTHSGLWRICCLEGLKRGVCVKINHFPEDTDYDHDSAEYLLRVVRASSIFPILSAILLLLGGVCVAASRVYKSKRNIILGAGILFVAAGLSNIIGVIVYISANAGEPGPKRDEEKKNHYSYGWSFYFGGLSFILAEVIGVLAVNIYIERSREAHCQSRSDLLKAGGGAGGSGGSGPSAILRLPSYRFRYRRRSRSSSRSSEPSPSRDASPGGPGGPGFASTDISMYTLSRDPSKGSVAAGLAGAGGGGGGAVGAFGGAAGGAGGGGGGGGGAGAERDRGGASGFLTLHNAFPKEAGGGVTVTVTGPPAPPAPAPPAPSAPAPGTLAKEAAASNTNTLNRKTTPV
Test: Calcium flux assay (FLIPR), inhibition of TARP γ8 dependent AMPA receptor activity
Conditions: GluA1o-γ8 (GRIA1o-CACNG8 fusion) in HEK293 cells, calcium flux after 15 μM glutamate
Entry rule: numbers only, all in nM.

Reference set (3 entries):
1. FC(F)(F)c1ccc2nc(-c3ccccc3)n(-c3ccc4[nH]ncc4c3)c2n1: 0.398
2. FC(F)(F)c1ccc2nc(C3CCOC3)n(-c3ccc4[nH]ncc4c3)c2n1 (racemic): 251
3. Oc1cc(-c2nc3ccc(C(F)(F)F)nc3n2-c2ccc3[nH]ncc3c2)ccn1: 251

Form: molecule = "CN(C)C(=O)c1nc2ccc(C(F)(F)F)nc2n1-c1ccc2[nH]ncc2c1" ; IC50 = 794
